Reported pKd is given for each of the following binders.
# tested system: T1, TauC3 (C-terminally truncated tau fragment ending at aspartate 421 of htau40) (human, UniProt P10636 1-738)
# T1 construct: Generated and purified by Genscript; also called Human TauC3; recombinant TauC3 protein
# T1 sequence (P10636 other isoform, or with tags, fused parts or gaps): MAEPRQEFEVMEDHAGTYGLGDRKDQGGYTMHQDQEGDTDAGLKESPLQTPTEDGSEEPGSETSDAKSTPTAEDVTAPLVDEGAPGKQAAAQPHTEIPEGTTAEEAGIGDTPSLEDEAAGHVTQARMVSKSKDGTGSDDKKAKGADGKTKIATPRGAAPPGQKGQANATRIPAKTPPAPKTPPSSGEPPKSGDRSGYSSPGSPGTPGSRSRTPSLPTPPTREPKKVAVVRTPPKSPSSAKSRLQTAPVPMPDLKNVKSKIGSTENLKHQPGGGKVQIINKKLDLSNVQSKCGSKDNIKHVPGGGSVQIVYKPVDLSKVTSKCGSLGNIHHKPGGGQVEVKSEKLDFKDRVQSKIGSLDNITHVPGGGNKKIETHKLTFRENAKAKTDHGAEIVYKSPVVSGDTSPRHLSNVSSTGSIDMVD
# run description: SPR (Biacore) kinetics, TauC3 amine-coupled on CM5, 1:1 global fit
Scale explanation: pKd corresponds to minus log10 of a concentration expressed in moles per litre.

Some solved cases for reference:
[
  {
    "binder": "MoTau01 HuG4K chimeric antibody (antibody, V domains shown, Mouse variable regions with human IgG4 / kappa constant regions (pHuG4, pHuK); also called chimeric Tau01) VH: EVQVVESGGGLVQPKGSLKLSCAASGFTFNTYAMNWVRQAPGKGLEWVARIRSKSNNYATYYADSVKDRFTISRDDSQSMVYLQMNNLKTEDTAMYYCVGGGDFWGQGTALTVSS VL: DIQMTQSPSSLSASLGERVSLTCRASQEISVYLSWFQQKPDGTIKRLIYGAFTLDSGVPKRFSGSRSGSDYSLTISSLESEDFADYYCLQYVRYPWTFGGGTKLEIK",
    "pKd": 10.24
  },
  {
    "binder": "Tau01 HMKE HuG4k (antibody, V domains shown, human IgG4 kappa (HuG4K); also called KMKE) VH: LVQLVESGGGLVQPGGSLKLSCAASGFTFNTYAMNWVRQASGKGLEWVARIRSKSNNYATYYAASVKGRFTISRDDSKSMAYLQMDSLKTEDTAVYYCVGGGDFWGQGTLVTVSS VL: DIQMTQSPSSLSASVGDRVTITCRASQEISVYLGWFQQKPGKAPKRLIYGAFKLQSGVPSRFSGSRSGTEFTLTISSLQPEDFATYYCLQYVRYPWTFGGGTKVEIK",
    "pKd": 10.70
  },
  {
    "binder": "Tau01 HMKO HuG4k (antibody, V domains shown, human IgG4 kappa (HuG4K)) VH: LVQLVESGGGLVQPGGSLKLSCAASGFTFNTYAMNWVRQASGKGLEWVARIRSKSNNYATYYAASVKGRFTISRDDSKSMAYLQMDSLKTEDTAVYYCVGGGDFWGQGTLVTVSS VL: DIQMTQSPSSLSASVGDRVTITCRASQEISVYLGWYQQKPGKAPKRLIYGAFSLQSGVPSRFSGSRSGTEYTLTISSLQPEDFATYYCLQYVRYPWTFGGGTKVEIK",
    "pKd": 10.23
  },
  {
    "binder": "Tau01 HMKP HuG4k (antibody, V domains shown, human IgG4 kappa (HuG4K); Lead candidate) VH: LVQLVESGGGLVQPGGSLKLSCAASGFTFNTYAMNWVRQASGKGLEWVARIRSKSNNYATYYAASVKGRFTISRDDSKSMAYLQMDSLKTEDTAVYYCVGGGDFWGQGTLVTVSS VL: DIQMTQSPSSLSASVGDRVTITCRASQEISVYLGWFQQKPGKAPKRLIYGAFKLQSGVPSRFSGSRSGTEYTLTISSLQPEDFATYYCLQYVRYPWTFGGGTKVEIK",
    "pKd": 10.89
  }
]

// pKd value for Tau01 HMKN HuG4k (antibody, V domains shown, human IgG4 kappa (HuG4K)) VH: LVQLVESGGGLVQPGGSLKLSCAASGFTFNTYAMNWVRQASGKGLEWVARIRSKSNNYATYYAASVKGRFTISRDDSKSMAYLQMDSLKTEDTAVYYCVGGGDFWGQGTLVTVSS VL: DIQMTQSPSSLSASVGDRVTITCRASQEISVYLGWYQQKPGKAPKRLIYGAFTLQSGVPSRFSGSRSGTEYTLTISSLQPEDFATYYCLQYVRYPWTFGGGTKVEIK : 10.60

pKd for Tau01 HMKM HuG4k (antibody, V domains shown, human IgG4 kappa (HuG4K)) VH: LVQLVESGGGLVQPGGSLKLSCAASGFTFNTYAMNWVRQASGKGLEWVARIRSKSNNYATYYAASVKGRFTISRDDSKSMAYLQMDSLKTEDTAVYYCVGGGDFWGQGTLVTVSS VL: DIQMTQSPSSLSASVGDRVTITCRASQEISVYLSWFQQKPGKAIKRLIYGAFSLQSGVPSRFSGSRSGTEYTLTISSLQPEDFATYYCLQYVRYPWTFGGGTKVEIK is 9.96
